Measured target: FAD-linked sulfhydryl oxidase ALR (Homo sapiens) (UniProt P55789)
Sequence (P55789 whole entry, looked up): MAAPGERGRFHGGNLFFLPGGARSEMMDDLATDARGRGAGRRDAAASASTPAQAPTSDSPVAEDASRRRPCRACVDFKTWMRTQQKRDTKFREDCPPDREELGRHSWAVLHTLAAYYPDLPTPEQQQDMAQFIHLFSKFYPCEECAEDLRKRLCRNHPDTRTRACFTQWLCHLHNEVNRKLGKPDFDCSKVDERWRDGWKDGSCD
Test summary: ALR-catalysed DTT oxidation blockers – biochemical, H2O2 detection, HRP-luminol luminescence, single point, primary screen (AID 485317)
Details: purified ALR, concentration not given here
The campaign covered roughly 290,000 compounds. About 11,000 (3.8%) were called active.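 The calls were made as follows: active = mean replicate inhibition above about 79%, with every replicate also reaching it (limit read from the data); inconclusive = only one of the two criteria met; inactive = mean below limit and not every replicate reaching it.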 The entries come from a sample that favours actives as a whole.
Possible outcomes: active, inactive

>  <Compound>
O=S(=O)(ON(c1ccccc1)S(=O)(=O)c1ccccc1)c1ccccc1

>  <Class>
inactive

$$$$
>  <Compound>
Cc1cc(C)c(C)c(S(=O)(=O)Nc2cccnc2)c1C

>  <Class>
inactive

$$$$
>  <Compound>
CCc1ccc(S(=O)(=O)NCC(O)COc2ccc(OC)cc2)cc1 (stereo not given)

>  <Class>
inactive

$$$$
>  <Compound>
Cc1c(C(=O)Nc2cccc(S(=O)(=O)N3CCOCC3)c2)oc2ccccc12

>  <Class>
inactive

$$$$
>  <Compound>
Nc1ccc(OCC(O)C[n+]2ccc(CCS(=O)(=O)[O-])cc2)cc1 (stereo not given)

>  <Class>
active

$$$$
>  <Compound>
COC(=O)c1nc(NC(=O)c2ccc(Cl)cc2)n[nH]1

>  <Class>
inactive

$$$$
>  <Compound>
Cc1c(C(C)CCCO)oc(=O)c2c1Oc1c(C)c(C(C)C[C@@H](C)O)oc(=O)c1C2 (stereo not given in full)

>  <Class>
inactive

$$$$
>  <Compound>
CN(CC(=O)NCCc1ccc(S(N)(=O)=O)cc1)CC(=O)Nc1ccc(Cl)cc1

>  <Class>
inactive

$$$$
>  <Compound>
CN1C(=O)[C@H]2[C@@H](/C=C/c3ccccc3)N3C(=O)CN(Cc4ccc(-c5ccccc5)cc4)C(=O)[C@@]3(C)[C@H]2C1=O

>  <Class>
inactive

$$$$
>  <Compound>
O=C(Nc1nsc(-c2ccccc2)n1)c1ccncc1

>  <Class>
inactive

$$$$

The origin of these recorded values is PubChem BioAssay AID485317.
